Cited source for all entries: the supplement of paper PMC12042874

runDescription: amyloid nucleation score (Sup35N fusion, yeast selection) (log enrichment); library NNK1; higher = more nucleation; inactive = no reads after selection;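 further: zero at mode of non-aggregating sequences after 7 days selection at 30°C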
# amyloid nucleation score values compiled below
metric: amyloid nucleation score

{"sequence": "NLASNVRESVGSGIYLMNIS", "metric": "amyloid nucleation score", "value": 1.97}
{"sequence": "NTSSFVSTNWSGFPWSGSRY", "metric": "amyloid nucleation score", "value": 2.02}
{"sequence": "SNHDNFYPVVLCMESKYNIE", "metric": "amyloid nucleation score", "value": 0.302}

---

runDescription: amyloid nucleation score (Sup35N fusion, yeast selection) (log enrichment); library NNK3; higher = more nucleation; inactive = no reads after selection
metric: amyloid nucleation score

{"substance": "RSILVFHSDRLKYGYLMIDV", "value": "inactive"}
{"substance": "MRLMVWESLR", "value": 1.6}
{"substance": "RPKTTH", "value": "inactive"}
{"substance": "WMCVLCCSVRNIGKTYKSCL", "value": "inactive"}
{"substance": "QSKFFGQWFLRQND", "value": 0.299}
{"substance": "QRVSFCIEVIGFQ", "value": -0.042}
{"substance": "CIYWLEF", "value": 1.57}
{"substance": "FGGAYFVTPGAYFVWYSFLG", "value": 0.222}
{"substance": "PEVCEPLLGFLCFCPVNSVP", "value": "inactive"}
{"substance": "SCGEYWPLLSFMNCWAP", "value": "inactive"}
{"substance": "DSKVLSFSWAMFMLIM", "value": "inactive"}
{"substance": "YVSHVSISVSSMLCYGGQSW", "value": 1.93}
{"substance": "SMFGLRLIDG", "value": "inactive"}
{"substance": "IFSNLGVVNLCRACFKYSNI", "value": 2.92}
{"substance": "VSLKVFYGNKDARNRDIPTL", "value": "inactive"}
{"substance": "THGIMLGFEECLGVYTFMCG", "value": "inactive"}
{"substance": "QILLFSFRVLFAGYRKIAST", "value": "inactive"}
{"substance": "GNLASICVRLCWLCARLWST", "value": "inactive"}
{"substance": "FLPWDFKASKKEPYSKYMNL", "value": "inactive"}
{"substance": "RHWTGCSNQESRTGCGACCI", "value": "inactive"}
{"substance": "GRARNHHRKNRGIGL", "value": "inactive"}
{"substance": "PVFQLNNFTYMRVPCLRGLN", "value": "inactive"}
{"substance": "HYTHSNLQAPDPH", "value": "inactive"}
{"substance": "YCYFFLGLCTYKSQYNGLRL", "value": "inactive"}
{"substance": "FDVRCLWYCQK", "value": 1.33}
{"substance": "AVLVDSWRWERFYFMTTIKT", "value": "inactive"}
{"substance": "WISIVQW", "value": "inactive"}
{"substance": "NQSGALVG", "value": "inactive"}
{"substance": "IYTSFVTMERALSMFSPLFH", "value": "inactive"}
{"substance": "MFRHVWVTNEVLSCGYIVTG", "value": "inactive"}
{"substance": "SEWKNTRNTHVLWYTSDSAT", "value": "inactive"}
{"substance": "FSRFIRQ", "value": 0.677}
{"substance": "LMSTKVVFEL", "value": 0.076}
{"substance": "ISGFKIVSYMNKIVVSTMGL", "value": "inactive"}
{"substance": "HFNEEGAQ", "value": -0.309}
{"substance": "VGIRWYGFDTCRRKFGTWNI", "value": "inactive"}
